Reported pKi for target or system α7 nAChR subtype (Rattus norvegicus, UniProt Q05941), by entry.
One number for each entry, as −log10 of the molar value.

1. O=C1c2cc(-c3cccc(OCc4ccccc4)c3)ccc2CN1[C@H]1CN2CCC1CC2 :: 7.29

Provide pKi values for the following items, in order.
1. O=C1c2cc(N3CCOCC3)ccc2CN1[C@H]1CN2CCC1CC2
2. CN(C)C(=O)c1cccc(-c2ccc3c(c2)C(=O)N([C@H]2CN4CCC2CC4)C3)c1
3. O=C1c2cc(-c3cccc4cccnc34)ccc2CN1[C@H]1CN2CCC1CC2
4. O=C1c2cc(-c3cccc(OC(F)(F)F)c3)ccc2CN1[C@H]1CN2CCC1CC2

A.
[6.38, 7.51, 7.05, 7.32]

* * *

Reported Ki for target or system α7 nAChR subtype (Rattus norvegicus), by entry.
One number for each entry, in nM.

// solved cases for Ki follow
1. CC(=O)Nc1cccc(-c2ccc3c(c2)C(=O)N([C@H]2CN4CCC2CC4)C3)c1 :: 7
2. O=C1c2cc(-c3ccc4ncccc4c3)ccc2CN1[C@H]1CN2CCC1CC2 :: 329
3. O=C1c2cc(-c3ccc(Cl)cc3)ccc2CN1[C@H]1CN2CCC1CC2 :: 90
4. CN(C)c1cccc(-c2ccc3c(c2)C(=O)N([C@H]2CN4CCC2CC4)C3)c1 :: 4.2
5. O=C1c2cc(-c3ccc4c(c3)OCO4)ccc2CN1[C@H]1CN2CCC1CC2 :: 37
6. CS(=O)(=O)c1cccc(-c2ccc3c(c2)C(=O)N([C@H]2CN4CCC2CC4)C3)c1 :: 94
7. O=C1c2cc(-c3cnn(Cc4ccccc4)c3)ccc2CN1[C@H]1CN2CCC1CC2 :: 146
8. O=C(c1cccc(-c2ccc3c(c2)C(=O)N([C@H]2CN4CCC2CC4)C3)c1)N1CCCC1 :: 14

Provide Ki values for the following items, in order.
1. CSc1cccc(-c2ccc3c(c2)C(=O)N([C@H]2CN4CCC2CC4)C3)c1
2. O=C1c2cc(Cl)ccc2CN1[C@H]1CN2CCC1CC2

A.
1: 37; 2: 289

* * *

What pKi was measured for each of the following?
# Subject Of Test: α7 nAChR subtype (Rattus norvegicus)
# Sequence (Q05941 23-502): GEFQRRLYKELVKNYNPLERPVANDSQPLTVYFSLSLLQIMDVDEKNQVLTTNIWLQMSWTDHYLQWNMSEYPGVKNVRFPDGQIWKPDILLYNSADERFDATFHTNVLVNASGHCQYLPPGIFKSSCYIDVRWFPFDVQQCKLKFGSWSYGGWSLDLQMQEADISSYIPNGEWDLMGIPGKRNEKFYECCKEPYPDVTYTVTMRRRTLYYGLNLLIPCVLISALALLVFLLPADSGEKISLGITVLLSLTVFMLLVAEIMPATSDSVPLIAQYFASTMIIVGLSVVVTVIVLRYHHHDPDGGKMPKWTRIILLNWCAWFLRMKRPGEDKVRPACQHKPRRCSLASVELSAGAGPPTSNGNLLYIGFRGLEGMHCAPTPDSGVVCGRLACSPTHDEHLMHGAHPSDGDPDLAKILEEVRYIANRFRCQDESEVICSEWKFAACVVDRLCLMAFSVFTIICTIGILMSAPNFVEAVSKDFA
# Experimental Details: Test A: 125I-α-Bungarotoxin binding to rat hippocampal membranes (affinity at α7 nAChR subtype)
# Setup Conditions: [125I]α-BTX displacement, rat hippocampal membranes
# Method: Test A—Assay for Affinity at α7 nAChR subtype 125I-α-Bungarotoxin (BTX) binding to rat hippocampal membranes. […] IC50 values and pseudo Hill coefficients (nH) were calculated using the non-linear curve fitting program ALLFIT (DeLean A, Munson P J and Rodbard D (1977) Am. J. Physiol., 235:E97-E102). […] Ki values were determined using 6 or more drug concentrations.
Answers are plain numbers, as −log10 of the molar value.

// solved cases for pKi follow
1) O=C(Nc1cccc(-c2ccc3c(c2)C(=O)N([C@H]2CN4CCC2CC4)C3)c1)c1ccccc1 :: 8.41
2) COc1cccc(-c2ccc3c(c2)C(=O)N([C@H]2CN4CCC2CC4)C3)c1 :: 7.66
3) COc1ccc(-c2ccc3c(c2)C(=O)N([C@H]2CN4CCC2CC4)C3)cn1 :: 6.54
4) COc1ccc(-c2ccc3c(c2)C(=O)N([C@H]2CN4CCC2CC4)C3)cc1 :: 7.11
5) COc1ccccc1-c1ccc2c(c1)C(=O)N([C@H]1CN3CCC1CC3)C2 :: 7.62
6) CC(C)Oc1cccc(-c2ccc3c(c2)C(=O)N([C@H]2CN4CCC2CC4)C3)c1 :: 7.85

Provide pKi values for the following items, in order.
1. CS(=O)(=O)c1ccc(-c2ccc3c(c2)C(=O)N([C@H]2CN4CCC2CC4)C3)cc1
2. CC(=O)Nc1ccc(-c2ccc3c(c2)C(=O)N([C@H]2CN4CCC2CC4)C3)cc1
3. CCC(=O)Nc1cccc(-c2ccc3c(c2)C(=O)N([C@H]2CN4CCC2CC4)C3)c1
4. CN(C)C(=O)c1ccc(-c2ccc3c(c2)C(=O)N([C@H]2CN4CCC2CC4)C3)cc1
5. CC(=O)Nc1ccccc1-c1ccc2c(c1)C(=O)N([C@H]1CN3CCC1CC3)C2
6. COc1cncc(-c2ccc3c(c2)C(=O)N([C@H]2CN4CCC2CC4)C3)c1

A.
1: 6.49; 2: 8.49; 3: 8.77; 4: 6.45; 5: 5.94; 6: 6.42

src = patent US7566727B2
